All figures here come from PubChem BioAssay (NCATS).

Test: qHTS for Inhibitors of Plasmodium falciparum (CP250) proliferation (AID 504320)
Conditions: P. falciparum CP250 in erythrocytes, SYBR Green DNA, 72 h; series mostly up to 6.7 µM
Results filed as inconclusive are left out. Calls of active or inactive are those of the source. Calls come from the whole dose curve; as a rule, active = well fitted inhibition curve with a large enough effect; inconclusive = small, poorly fitted or top-dose-only effect, or effect the other way; inactive = flat fitted curve, though single readings scatter.
// allowed return values: active, inactive

Below, 5 compounds whose answers are already recorded.
INSERT INTO results (compound, label_value) VALUES
  ('CC(C)CON=C1C[C@@H](O)[C@@H](O)[C@@H]2[C@H]3C(=O)N(Cc4ccc5c(c4)OCO5)C(=O)[C@@H]3CC[C@@H]12', 'inactive'),
  ('CCCCc1cc2c(cn1)=C(OC(=O)c1ccco1)C(C)(OC(=O)CC)C(=O)C=2 (stereo unspecified)', 'inactive'),
  ('C=CCN1C(=O)[C@@]2(CC(C)=CC[C@@H](C)O2)c2c(Br)cccc21', 'inactive'),
  ('COC(=O)N[C@@H](CCc1ccccc1)[C@]1(C(=O)OC)CCCC1=O', 'inactive'),
  ('COc1ccc(COC(=O)NN=C2C[C@@H](O)[C@@H](O)[C@@H]3[C@H]4C(=O)N(C[C@@H]5CCCO5)C(=O)[C@@H]4CC[C@H]23)cc1', 'inactive');

Incoming: Just curious, what result did `CC(=O)OC[C@H]1O[C@H](CC=NO[C@H](C)c2cn([C@H](CO)Cc3ccccc3)nn2)C=C[C@@H]1OC(C)=O` get here?
Outgoing: inactive

Incoming: How did this test come out for `C=CC[C@@H]1C=C(C(=O)OC)N(C(=O)C(F)(F)F)[C@@H](c2ccccc2Br)[C@@H]1C` ?
Outgoing: inactive

Incoming: Given `N#CCCCS(=O)(=O)c1nnnn1-c1ccccc1` , state the outcome it received in this test.
Outgoing: inactive
